# Test system: Saccharomyces cerevisiae
# Assay explanation: protein stability index of tFT-peptide fusion (C-terminal peptide) (PSI (0-1 scale)); higher = more stable (slower turnover);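 also: PSI is a weighted mean of sequencing reads over stability bins, variants kept only with over 10 reads, mCherry proximal and sfGFP distal, peptide attached via GGGS linker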
# Protocol conditions: genetic background: wild type; temperature: 30 C

Sequence content	protein stability index
VPCSIQWNLDEL	0.673
PPPLPPPPPPSP	0.782
VKTIRVTKSVGD	0.694
LSTSLPLSPPPP	0.652
GRHRGNVWGAVA	0.701
TPQTTQIKNEKH	0.789
HLRPRYSLVPAT	0.651
PLLLPPVPPFCF	0.674
GSRPPPRPLFPS	0.697
PPRSLPPPPFPF	0.749
LSGLLGGGAGTL	0.678
ACTWASSSLARG	0.735

* * *

Reported protein stability index values follow for various sequences
# Tested on: Saccharomyces cerevisiae
# Assay explanation: protein stability index of tFT-peptide fusion (C-terminal peptide) (PSI (0-1 scale)); higher = more stable (slower turnover)
# Protocol conditions: genetic background: wild type; temperature: 30 C

Sequence content	Target under test	protein stability index
SSPGFCRVFVFF	Saccharomyces cerevisiae	0.491
SSIHSLRQVISI	Saccharomyces cerevisiae	0.614
RPCRPLIAAFVF	Saccharomyces cerevisiae	0.502
GSGVGSRARRGR	Saccharomyces cerevisiae	0.695
PFGDRSGLCVSV	Saccharomyces cerevisiae	0.653
PGVFEITPVMLI	Saccharomyces cerevisiae	0.695
PILFHIPHRHVP	Saccharomyces cerevisiae	0.749
PRPLPPPPAFLP	Saccharomyces cerevisiae	0.766
IRPSNLRPPSYL	Saccharomyces cerevisiae	0.682
PRHPPTHLIPKT	Saccharomyces cerevisiae	0.615
VVWSGRWKGLRV	Saccharomyces cerevisiae	0.621
LFDYEAGEVMGG	Saccharomyces cerevisiae	0.717
TVERRYTGDWGG	Saccharomyces cerevisiae	0.726
QRGKKKKDKSLV	Saccharomyces cerevisiae	0.642
AWVCSPSACGLV	Saccharomyces cerevisiae	0.834
RHTYSPRAPVPD	Saccharomyces cerevisiae	0.707
PYFSLFSRRSLN	Saccharomyces cerevisiae	0.539
SPPSPSTPPARP	Saccharomyces cerevisiae	0.747
CPRRVAVAGETS	Saccharomyces cerevisiae	0.697
TRLSRGTRVEYR	Saccharomyces cerevisiae	0.651
FSQLVQPSSFTS	Saccharomyces cerevisiae	0.718
GLVLVGGGGGAV	Saccharomyces cerevisiae	0.577

* * *

# Test system: Saccharomyces cerevisiae
# Assay explanation: protein stability index of tFT-peptide fusion (C-terminal peptide) (PSI (0-1 scale)); higher = more stable (slower turnover)
# Protocol conditions: genetic background: wild type; temperature: 30 C

Sequence content	protein stability index
HRILILSGLRAG	0.626
KIKKKRKQKGKQ	0.722
GLDLLTKFSKEC	0.465
ELPECEHLTSLT	0.691
NGGSAKVYLGKI	0.652
PPSPPHPIRPPA	0.713
GLSVLLTCIHFV	0.256
PYHARPDRSLSG	0.693
RKKRGKNEERQD	0.707
ADSVVAGKGASV	0.686
FLWAPRWFCVGH	0.651
QFQVWGAPGLKR	0.711
WFSAGSCRWVLC	0.24
LQEQIHKPPKPQ	0.72
AGPWMESPTKSC	0.702
VFLRCRSLSMRV	0.465
QKPKKKNTTEKQ	0.689
RTPYFGPLAQIA	0.622
PTPSDRLPPPSH	0.712
KTQKYEIKNLKK	0.581
FGEDFCHLLWCC	0.442
VWGRLGGGVGRA	0.719
SVQIKKIRRKNN	0.623
ILPFYAEGQLKF	0.649
KGLSNGKNQIKM	0.597
YVTSKLMNLVLY	0.662
PPSSDRPSIILP	0.691
ERRPYVAGRRRF	0.672
VSVGRSSARVIG	0.725
PLAPNYPANTGT	0.69
PLPPPLPPPSPP	0.647
PLLPPSDTCSLL	0.718

* * *

# Test system: Saccharomyces cerevisiae
# Assay explanation: protein stability index of tFT-peptide fusion (C-terminal peptide) (PSI (0-1 scale)); higher = more stable (slower turnover)
# Protocol conditions: genetic background: cdc53-1; temperature: 37 C
Parameter threshold = 0.3. Response is label 1 when protein stability index meets or exceeds it, else label 0.

Sequence content	Target under test	Assigned label
FLGVFFYFLLCV	Saccharomyces cerevisiae	label 0
CLFFFFFHLPIF	Saccharomyces cerevisiae	label 1
VLWVYLFLFVIF	Saccharomyces cerevisiae	label 0
VQTVRLVFQVLA	Saccharomyces cerevisiae	label 1
SLFFCIPIHSVF	Saccharomyces cerevisiae	label 1
CLFSVLFPLFFR	Saccharomyces cerevisiae	label 0
VLRFVYDLVSAL	Saccharomyces cerevisiae	label 1
ILCYVWLVFSGF	Saccharomyces cerevisiae	label 1
RRQQNHRQLCAT	Saccharomyces cerevisiae	label 1
YIILLSRKCAFC	Saccharomyces cerevisiae	label 1
VLSLYWLIISRL	Saccharomyces cerevisiae	label 1
VCLVLVVVWWSG	Saccharomyces cerevisiae	label 0
RVFLVLFLILSG	Saccharomyces cerevisiae	label 1
EFVACFRLLVHG	Saccharomyces cerevisiae	label 1

* * *

# Tested on: Saccharomyces cerevisiae
# Assay explanation: protein stability index of tFT-peptide fusion (C-terminal peptide) (PSI (0-1 scale)); higher = more stable (slower turnover)
# Protocol conditions: genetic background: wild type; temperature: 30 C
Quick list: protein stability index per entry.
Measured property: protein stability index

Sequence content	Result
RKNKLKQNKKYR	0.718
PLSPPLLPPPPP	0.688
LPSPPASSPRRS	0.684
PHYRYLHPSPPP	0.704
GSGIFHPVDLGL	0.688
YATAICRSGCLK	0.699
GVGGGWVGCGVI	0.764
SPIVLTYHYLCR	0.666
ISVSTDSPVRTW	0.639
STQELHYCFVCL	0.59
GFATCSFPVCRV	0.661
PPRSPPLPPAPT	0.762
ESLFFPFAFSSV	0.809
PPPPPHTPPPYP	0.766
EKIRGFPGEIGE	0.694

* * *

# System: Saccharomyces cerevisiae
# Assay explanation: protein stability index of tFT-peptide fusion (C-terminal peptide) (PSI (0-1 scale)); higher = more stable (slower turnover)
# Protocol conditions: genetic background: cdc34-1; temperature: 37 C
Listed below: protein stability index values for each entry.

Sequence content	protein stability index
PLFLLTFAITLV	0.0736
CVPAPCGRASCR	0.697
SVSFFSLCTSSL	0.511
VFVFLFVFLFLL	0.147
EKTKRGLIQRVV	0.68
ALHGTVRNWQRQ	0.673
DFLSGRCIFFYV	0.702
VGTGVGEGGGVV	0.679
RVRNSQVVAVVG	0.491
GFVCFIHLFLCF	0.35
LFFFLVWSLSVF	0.0262
VQTVRLVFQVLA	0.307
RFPFFLPFIAFL	0.491

* * *

# Test system: Saccharomyces cerevisiae
# Assay explanation: protein stability index of tFT-peptide fusion (C-terminal peptide) (PSI (0-1 scale)); higher = more stable (slower turnover)
# Protocol conditions: genetic background: doa10 deletion; temperature: 30 C
We begin with a simple list: items and their reported protein stability index.

Sequence content	Target under test	protein stability index
SYRFFLFLAVFV	Saccharomyces cerevisiae	0.442
VAWFFFAYAFFM	Saccharomyces cerevisiae	0.251
ICIFWLITGLWL	Saccharomyces cerevisiae	0.304
DFRGVSVIRHQV	Saccharomyces cerevisiae	0.126
SFSFCCLLASFV	Saccharomyces cerevisiae	0.444
RICACHGIRFIP	Saccharomyces cerevisiae	0.356
VSLIFCLFFLSC	Saccharomyces cerevisiae	0.395
FAIRMHCLIFRC	Saccharomyces cerevisiae	0.2
IVRDTECGIFYR	Saccharomyces cerevisiae	0.651
VFVFLFVFLFLL	Saccharomyces cerevisiae	0.397
GDSVRVIIFCLN	Saccharomyces cerevisiae	0.119
RWRYHAYVITIL	Saccharomyces cerevisiae	0.118
VLRFVYDLVSAL	Saccharomyces cerevisiae	0.334
LSLLILFVLLSF	Saccharomyces cerevisiae	0.391
VVVLFGRLVVIC	Saccharomyces cerevisiae	0.327
WFAHGLRHFRIL	Saccharomyces cerevisiae	0.273
WTRAHWFFQFFV	Saccharomyces cerevisiae	0.0772
ISTRLALCACVC	Saccharomyces cerevisiae	0.2
LAGVVWVVWCVG	Saccharomyces cerevisiae	0.181
FIPPRTYCLMIG	Saccharomyces cerevisiae	0.219
PTAGFFGLLVLV	Saccharomyces cerevisiae	0.279
RIFWMFFSQHIG	Saccharomyces cerevisiae	0.106
PLRRPSWVVLSS	Saccharomyces cerevisiae	0.357
FLCFFGGCFFLV	Saccharomyces cerevisiae	0.416
LFLTSFRFLRLF	Saccharomyces cerevisiae	0.0803
FLVFRPPALFLR	Saccharomyces cerevisiae	0.611
CPICDFLFLALF	Saccharomyces cerevisiae	0.469
CPALTFCLLLSS	Saccharomyces cerevisiae	0.427
WLLVVCRGLVFR	Saccharomyces cerevisiae	0.329
LCHILAIIRRGA	Saccharomyces cerevisiae	0.429
PHRLSRFILRLL	Saccharomyces cerevisiae	0.118
RGVRALFLLLSF	Saccharomyces cerevisiae	0.264
VLAYFCYVVFVI	Saccharomyces cerevisiae	0.291
GGVVLVVVFCCV	Saccharomyces cerevisiae	0.18
GCLFASWPLAVC	Saccharomyces cerevisiae	0.166
